Every entry's value here was drawn from patent US6737383B1.

Each entry below lists one item and its recorded B. signalgrass plant response rating value.
tested on: surinam grass; test: Test B pre/postemergence surinam grass; format: in vivo, Brachiaria decumbens; details: Preemergence, Rate 125 g/ha; scale 0 to 10, 0 is no effect, 10 is complete control
Could you respond with only the numeric value?

COC(=O)CCCn1c(=O)on(C(=O)N(c2ccccc2)C(C)C)c1=O [Compound 572]
0
CCCCCn1c(=O)on(C(=O)N(c2ccc(Cl)cc2)C(C)C)c1=O [Compound 528]
0
CC(C)N(C(=O)n1oc(=O)n(CCc2ccccc2)c1=O)c1ccc(F)cc1F [Compound 508]
7
CC(C)=CCn1c(=O)on(C(=O)N(c2ccc(Cl)cc2)C(C)C)c1=O [Compound 545]
0

Any idea what its B. signalgrass plant response rating is? The compound is CC(=O)C(C)n1c(=O)on(C(=O)N(c2ccccc2)C(C)C)c1=O (stereo not shown) [Compound 576]
3

Any idea what its B. signalgrass plant response rating is? The compound is CCOC(=O)C=C(Cn1c(=O)on(C(=O)N(c2ccc(F)cc2F)C(C)C)c1=O)OCC [Compound 519]
0

Any idea what its B. signalgrass plant response rating is? The compound is C=CCCCn1c(=O)on(C(=O)N(c2ccc(F)cc2F)C(C)C)c1=O [Compound 516]
5

---

test system: morningglory; test: Test B pre/postemergence morningglory; type: in vivo, Ipomoea hederacea; conditions: Postemergence, Rate 250 g/ha; scale 0 to 10, 0 is no effect, 10 is complete control
Each entry below lists one item and its recorded Plant response rating, Morningglory value.
Could you respond with only the numeric value?

Example cases with answers are listed next.
CC(C)N(C(=O)n1oc(=O)n(C(C)C2CC2)c1=O)c1ccc(F)cc1 (stereo not shown)
7
CC(C)N(C(=O)n1oc(=O)n(C(C)CCl)c1=O)c1ccc(F)cc1 (stereo not shown)
6
CC(C)N(C(=O)n1oc(=O)n(C(C)CCl)c1=O)c1ccc(F)cc1F (stereo not shown)
7

Now look at this one.
Lab note: need Plant response rating, Morningglory with morningglory for entry CC(C)N(C(=O)n1oc(=O)n(C2CCOCC2)c1=O)c1ccccc1 , please look it up.
9

---

test system: velvetleaf; assay: Test B pre/postemergence velvetleaf; assay type: in vivo, Abutilon theophrasti; conditions: Rate 250 g/ha, Postemergence; scale 0 to 10, 0 is no effect, 10 is complete control
readout: Plant response rating, Velvetleaf

Example cases with answers are listed next.
CC(C)N(C(=O)n1oc(=O)n(C2CCCCC2C(F)(F)F)c1=O)c1ccc(F)cc1 (stereo not shown)
3
CC(C)N(C(=O)n1oc(=O)n(CC(F)(F)F)c1=O)c1ccc(F)cc1
6
CC(C)Cn1c(=O)on(C(=O)N(c2ccc(F)cc2)C(C)C)c1=O
0

Now look at this one.
Lab note: need Plant response rating, Velvetleaf with velvetleaf for entry CC(C)N(C(=O)n1oc(=O)n(C2CCCCC2)c1=O)c1ccc(F)cc1 , please look it up.
1

---

System: morningglory
Experiment: Test B pre/postemergence morningglory
Format: in vivo, Ipomoea hederacea
Conditions: Preemergence, Rate 250 g/ha; scale of 0 to 10 where 0 is no effect and 10 is complete control
Experimental: […] At the same time, these crop and weed species were also treated with postemergence applications of test chemicals formulated in the same manner. […] Treated plants and controls were maintained in a greenhouse for twelve to sixteen days, after which all species were compared to controls and visually evaluated. […]
readout: Morningglory plant response rating
Could you respond with only the numeric value?

Example cases with answers are listed next.
CC(C)N(C(=O)n1oc(=O)n(CC#C[Si](C)(C)C)c1=O)c1ccc(F)cc1
3
C=C(Cn1c(=O)on(C(=O)N(c2ccc(F)cc2)C(C)C)c1=O)C[Si](C)(C)C
0
Cc1ccccc1-n1c(=O)on(C(=O)N(c2ccc(N(C)C)cc2)C(C)C)c1=O
0

Any idea what its Morningglory plant response rating is? The molecule is CC(C)N(C(=O)n1oc(=O)n(CC(=O)OC(C)(C)C)c1=O)c1ccc(F)cc1
0

Any idea what its Morningglory plant response rating is? The molecule is CC(C)N(C(=O)n1oc(=O)n(CC2CC2)c1=O)c1ccc(F)cc1
0
